All figures here come from patent US20050032866A1.

Test: plasma pharmacokinetics of SB 207266 on once daily oral dosing
Assay type: in vivo, human
Details: human, plasma, oral; read-out: elimination half-life T½
endpoint: half-life

Ask | Name the reported half-life value associated with the compound CCCCN1CCC(CNC(=O)c2c3n(c4ccccc24)CCCO3)CC1
Reply | 20 to 24 h
